Conditions: 4 K; 101.33 kPa; Crystal; relaxation calorimetry
ENDPOINT: molar entropy (J/K/mol)

Measured molar entropy, OC[C@@H](O)[C@H](O)[C@@H](O)CO : 0.01724

I. OC[C@@H](O)C(O)[C@H](O)CO
II. O[C@H]1[C@H](O)[C@@H](O)[C@H](O)[C@@H](O)[C@H]1O [cis-1,2,3,5-trans-4,6-cyclohexanehexol]
## Task Compare I and II by numeric molar entropy and name the larger one. Return value: the label identifying the chosen record.
## Result II
(II: 0.0288 J/K/mol, I: 0.01391 J/K/mol)

----------
Assay: molar heat capacity at constant pressure
Conditions: 261.15 K; 101.33 kPa; Crystal; Small sample (50 mg) DSC
ENDPOINT: molar heat capacity at constant pressure (J/K/mol)

Measured molar heat capacity at constant pressure, OC[C@@H](O)C(O)[C@H](O)CO : 175.07

Measured molar heat capacity at constant pressure, OC[C@@H](O)[C@@H](O)CO : 144.74

Measured molar heat capacity at constant pressure, O[C@H]1[C@H](O)[C@@H](O)[C@H](O)[C@@H](O)[C@H]1O [cis-1,2,3,5-trans-4,6-cyclohexanehexol] : 189.58

Measured molar heat capacity at constant pressure, OC[C@H](O)C(O)[C@@H](O)CO [L-(-)-arabitol] : 180.97

Measured molar heat capacity at constant pressure, OC[C@@H](O)[C@@H](O)[C@H](O)[C@H](O)CO : 203.09

Measured molar heat capacity at constant pressure, OC[C@@H](O)[C@H](O)[C@@H](O)CO : 182.91
